# PROTOCOL: in vitro
# TEST CONTEXT: human
// CC50 lookup, one value per entry

[
  {
    "CHEM SMILES": "C[C@@H]1O[C@@H](O[C@H]2C[C@@H](O)[C@]3(CO)[C@H]4[C@H](O)C[C@]5(C)[C@@H](C6=CC(=O)OC6)CC[C@]5(O)[C@@H]4CC[C@]3(O)C2)[C@H](O)[C@H](O)[C@H]1O",
    "CC50": "> 100 µM"
  },
  {
    "CHEM SMILES": "O=C1C(O)=C([C@H]2CC[C@H](c3ccc(Cl)cc3)CC2)C(=O)c2ccccc21",
    "CC50": "> 100 µM"
  },
  {
    "CHEM SMILES": "COC(=O)Nc1nc2ccc(C(=O)c3ccccc3)cc2[nH]1",
    "CC50": "> 100 µM"
  },
  {
    "CHEM SMILES": "CCCCc1oc2ccc(NS(C)(=O)=O)cc2c1C(=O)c1ccc(OCCCN(CCCC)CCCC)cc1",
    "CC50": "20.2 µM"
  }
]
